test: Hue evaluation for ultraviolet absorbers, Hazen color (APHA), Lovibond Nessleriser 2150; type: physicochemical
measurementKind: Evaluation for ultraviolet absorber: Hue (APHA)

compound	experimentalResult
CCCCC(CC)COC(=O)C=Cc1ccc(OC)cc1 (stereo not shown) [compound 4, 2-ethylhexyl p-methoxycinnamate]	10
CCCCC(CC)COC(=O)C=Cc1ccc(OC)cc1 (stereo not shown) [Example 1, 2-ethylhexyl p-methoxycinnamate]	10
CCCCC(CC)COC(=O)C=Cc1ccc(OC)cc1 (stereo not shown) [Example 2, 2-ethylhexyl p-methoxycinnamate]	10
CCCCC(CC)COC(=O)C=Cc1ccc(OC)cc1 (stereo not shown) [compound 5, 2-ethylhexyl p-methoxycinnamate]	20
CCCCC(CC)COC(=O)C=Cc1ccc(OC)cc1 (stereo not shown) [compound 1, 2-ethylhexyl p-methoxycinnamate]	40
CCCCC(CC)COC(=O)C=Cc1ccc(OC)cc1 (stereo not shown) [compound 9, 2-ethylhexyl p-methoxycinnamate]	10
CCCCC(CC)COC(=O)C=Cc1ccc(OC)cc1 (stereo not shown) [compound 2, 2-ethylhexyl p-methoxycinnamate]	10

###

test: Hue evaluation for ultraviolet absorbers, Hazen color (APHA), Lovibond Nessleriser 2150; assay type: physicochemical
molecules and their reported Evaluation for ultraviolet absorber: Hue
measurementKind: Evaluation for ultraviolet absorber: Hue (APHA)

molecule	experimentalResult
CCCCC(CC)COC(=O)C=Cc1ccc(OC)cc1 (stereo not drawn) [compound 6, 2-ethylhexyl p-methoxycinnamate]	20
CCCCC(CC)COC(=O)C=Cc1ccc(OC)cc1 (stereo not drawn) [compound 3, 2-ethylhexyl p-methoxycinnamate]	40
CCCCC(CC)COC(=O)C=Cc1ccc(OC)cc1 (stereo not drawn) [compound 7, 2-ethylhexyl p-methoxycinnamate]	10
CCCCC(CC)COC(=O)C=Cc1ccc(OC)cc1 (stereo not drawn) [Example 4, 2-ethylhexyl p-methoxycinnamate]	10
CCCCC(CC)COC(=O)C=Cc1ccc(OC)cc1 (stereo not drawn) [Example 3, 2-ethylhexyl p-methoxycinnamate]	10
CCCCC(CC)COC(=O)C=Cc1ccc(OC)cc1 (stereo not drawn) [compound 8, 2-ethylhexyl p-methoxycinnamate]	20

###

test: Odor evaluation for ultraviolet absorbers after a time has elapsed (storage for 3 weeks); assay type: physicochemical; details: stored in the dark at 50° C. for 3 weeks; 10 ranks: 1, no odor; 10, very intense odor
measurementKind: Odor evaluation for ultraviolet absorber after a time has elapsed: In the dark

compound	experimentalResult
CCCCC(CC)COC(=O)C=Cc1ccc(OC)cc1 (stereo not shown) [Example 4, 2-ethylhexyl p-methoxycinnamate]	2
CCCCC(CC)COC(=O)C=Cc1ccc(OC)cc1 (stereo not shown) [Example 3, 2-ethylhexyl p-methoxycinnamate]	2
CCCCC(CC)COC(=O)C=Cc1ccc(OC)cc1 (stereo not shown) [compound 7, 2-ethylhexyl p-methoxycinnamate]	3
CCCCC(CC)COC(=O)C=Cc1ccc(OC)cc1 (stereo not shown) [Example 1, 2-ethylhexyl p-methoxycinnamate]	2
CCCCC(CC)COC(=O)C=Cc1ccc(OC)cc1 (stereo not shown) [compound 4, 2-ethylhexyl p-methoxycinnamate]	4
CCCCC(CC)COC(=O)C=Cc1ccc(OC)cc1 (stereo not shown) [compound 9, 2-ethylhexyl p-methoxycinnamate]	2
CCCCC(CC)COC(=O)C=Cc1ccc(OC)cc1 (stereo not shown) [compound 6, 2-ethylhexyl p-methoxycinnamate]	3

###

assay: Odor evaluation for ultraviolet absorbers after a time has elapsed (storage for 3 weeks); assay type: physicochemical; settings: stored in the light at 20° C., 1000 lux for 3 weeks; 10 ranks: 1, no odor; 10, very intense odor
measurementKind: Odor evaluation for ultraviolet absorber after a time has elapsed: In the light

molecule	experimentalResult
CCCCC(CC)COC(=O)C=Cc1ccc(OC)cc1 (stereo not shown) [compound 3, 2-ethylhexyl p-methoxycinnamate]	4
CCCCC(CC)COC(=O)C=Cc1ccc(OC)cc1 (stereo not shown) [Example 4, 2-ethylhexyl p-methoxycinnamate]	1
CCCCC(CC)COC(=O)C=Cc1ccc(OC)cc1 (stereo not shown) [compound 1, 2-ethylhexyl p-methoxycinnamate]	4
CCCCC(CC)COC(=O)C=Cc1ccc(OC)cc1 (stereo not shown) [compound 5, 2-ethylhexyl p-methoxycinnamate]	3
CCCCC(CC)COC(=O)C=Cc1ccc(OC)cc1 (stereo not shown) [Example 1, 2-ethylhexyl p-methoxycinnamate]	1
CCCCC(CC)COC(=O)C=Cc1ccc(OC)cc1 (stereo not shown) [compound 8, 2-ethylhexyl p-methoxycinnamate]	2
CCCCC(CC)COC(=O)C=Cc1ccc(OC)cc1 (stereo not shown) [compound 4, 2-ethylhexyl p-methoxycinnamate]	3

###

molecules and their reported Odor evaluation for ultraviolet absorber after a time has elapsed: In the light
experiment: Odor evaluation for ultraviolet absorbers after a time has elapsed (storage for 3 weeks); format: physicochemical; conditions: stored in the light at 20° C., 1000 lux for 3 weeks; 10 ranks: 1, no odor; 10, very intense odor
measurementKind: Odor evaluation for ultraviolet absorber after a time has elapsed: In the light

molecule	experimentalResult
CCCCC(CC)COC(=O)C=Cc1ccc(OC)cc1 (stereo not drawn) [compound 2, 2-ethylhexyl p-methoxycinnamate]	4
CCCCC(CC)COC(=O)C=Cc1ccc(OC)cc1 (stereo not drawn) [Example 3, 2-ethylhexyl p-methoxycinnamate]	1
CCCCC(CC)COC(=O)C=Cc1ccc(OC)cc1 (stereo not drawn) [compound 7, 2-ethylhexyl p-methoxycinnamate]	2
CCCCC(CC)COC(=O)C=Cc1ccc(OC)cc1 (stereo not drawn) [compound 6, 2-ethylhexyl p-methoxycinnamate]	2
CCCCC(CC)COC(=O)C=Cc1ccc(OC)cc1 (stereo not drawn) [Example 2, 2-ethylhexyl p-methoxycinnamate]	1
CCCCC(CC)COC(=O)C=Cc1ccc(OC)cc1 (stereo not drawn) [compound 9, 2-ethylhexyl p-methoxycinnamate]	3

Where do these numbers come from? They come from patent US20060193796A1.
